Target desc: human SGLT2 (Homo sapiens)
Construct: expressed in transfected cells
Sequence (P31639 1-672): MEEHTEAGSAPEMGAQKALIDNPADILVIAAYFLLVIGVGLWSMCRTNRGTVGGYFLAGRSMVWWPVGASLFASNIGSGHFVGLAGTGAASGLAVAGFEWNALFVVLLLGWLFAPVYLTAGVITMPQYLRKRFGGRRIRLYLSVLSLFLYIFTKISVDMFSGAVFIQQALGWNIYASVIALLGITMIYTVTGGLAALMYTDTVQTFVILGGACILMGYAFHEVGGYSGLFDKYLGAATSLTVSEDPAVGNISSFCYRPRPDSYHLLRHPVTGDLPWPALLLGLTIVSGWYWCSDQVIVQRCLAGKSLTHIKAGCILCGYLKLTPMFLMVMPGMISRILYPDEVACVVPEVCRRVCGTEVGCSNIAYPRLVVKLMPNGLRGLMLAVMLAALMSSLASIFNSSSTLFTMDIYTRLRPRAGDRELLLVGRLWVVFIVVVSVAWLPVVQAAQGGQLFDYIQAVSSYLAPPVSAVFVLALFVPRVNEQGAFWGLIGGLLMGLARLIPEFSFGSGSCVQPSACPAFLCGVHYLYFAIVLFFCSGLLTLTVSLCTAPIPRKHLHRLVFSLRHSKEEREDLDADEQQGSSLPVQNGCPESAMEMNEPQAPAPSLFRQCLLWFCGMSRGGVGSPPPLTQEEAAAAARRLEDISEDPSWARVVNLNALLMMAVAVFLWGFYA
Protocol summary: SGLT2 in vitro assay: Na-dependent 14C-AMG uptake in CHO-K1 cells stably expressing human SGLT2
Assay type: cell-based
Condition notes: @ 0.3 μM; CHO-K1 cells stably expressing human SGLT2; 14C-AMG uptake
Please use Satisfied for SGLT2 % Inh @ 0.3 μM under 80% and Not satisfied for everything else, ties included.

Compound: CCc1ccc(Cc2cc([C@@H]3O[C@H](CO)C(F)(F)[C@H](O)[C@H]3O)c(OC)cc2C)cc1
Target desc: human SGLT2 (Homo sapiens)
Class: Not satisfied
--
Compound: Cc1cc(O)c([C@@H]2O[C@H](CO)C(F)(F)[C@H](O)[C@H]2O)cc1Cc1ccc(-c2cccc(F)c2)s1
Target desc: human SGLT2 (Homo sapiens)
Class: Satisfied
--
Compound: COCCOc1cc(C)c(Cc2cc3ccccc3s2)cc1[C@@H]1O[C@H](CO)C(F)(F)[C@H](O)[C@H]1O
Target desc: human SGLT2 (Homo sapiens)
Class: Satisfied
--
Compound: COC(=O)N1CCc2sc(Cc3cc([C@@H]4O[C@H](CO)C(F)(F)[C@H](O)[C@H]4O)c(OC)cc3Cl)cc2C1
Target desc: human SGLT2 (Homo sapiens)
Class: Satisfied
--
Compound: COc1cc(O)c([C@@H]2O[C@H](CO)C(F)(F)[C@H](O)[C@H]2O)cc1Cc1cc2c(s1)CCN(C#N)C2
Target desc: human SGLT2 (Homo sapiens)
Class: Satisfied
--
Compound: OC[C@H]1O[C@@H](c2cc3c(c(Cc4ccc(OCF)cc4)c2)OCC3)[C@H](O)[C@@H](O)C1(F)F
Target desc: human SGLT2 (Homo sapiens)
Class: Satisfied
--
Compound: COc1cc(C)c(Cc2ccc(OC(F)(F)F)cc2)cc1[C@@H]1O[C@H](CO)C(F)(F)[C@H](O)[C@H]1O
Target desc: human SGLT2 (Homo sapiens)
Class: Satisfied
--
Compound: CCc1ccc(Cc2cc(C3OC(CO)C(F)(F)C(O)C3O)cc3c2OCC3CO)cc1 (mixture of isomers)
Target desc: human SGLT2 (Homo sapiens)
Class: Satisfied

Alright, here's another compound for you.
Req: Lab note: confirm whether the reported SGLT2 % Inh @ 0.3 μM for this compound is below 80%, equality not counting. compound: Cc1cc(O)c([C@@H]2O[C@H](CO)C(F)(F)[C@H](O)[C@H]2O)cc1Cc1cc2c(s1)CCN(C#N)C2
Resp: Not satisfied

----------
Target desc: human SGLT1 (Homo sapiens)
Construct: expressed in transfected cells
Sequence (P13866 whole entry): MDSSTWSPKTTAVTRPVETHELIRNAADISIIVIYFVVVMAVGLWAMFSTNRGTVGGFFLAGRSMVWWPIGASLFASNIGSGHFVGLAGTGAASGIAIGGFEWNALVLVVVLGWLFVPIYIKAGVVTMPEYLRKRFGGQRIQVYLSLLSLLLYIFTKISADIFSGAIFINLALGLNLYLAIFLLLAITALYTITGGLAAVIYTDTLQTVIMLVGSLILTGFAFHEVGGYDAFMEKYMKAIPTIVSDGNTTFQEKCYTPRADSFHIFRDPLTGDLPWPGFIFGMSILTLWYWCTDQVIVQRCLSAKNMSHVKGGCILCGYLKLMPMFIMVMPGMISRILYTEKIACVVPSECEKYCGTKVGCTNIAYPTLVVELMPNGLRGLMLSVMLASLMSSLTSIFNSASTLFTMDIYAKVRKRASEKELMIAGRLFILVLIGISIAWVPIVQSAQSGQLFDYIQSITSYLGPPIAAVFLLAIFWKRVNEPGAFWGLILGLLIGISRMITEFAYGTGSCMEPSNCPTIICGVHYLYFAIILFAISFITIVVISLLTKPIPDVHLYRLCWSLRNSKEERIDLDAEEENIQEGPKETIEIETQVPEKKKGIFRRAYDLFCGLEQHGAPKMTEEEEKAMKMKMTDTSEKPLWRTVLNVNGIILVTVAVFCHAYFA
Protocol summary: SGLT1 in vitro assay: Na-dependent 14C-AMG uptake in CHO-K1 cells stably expressing human SGLT1
Assay type: cell-based
Condition notes: @ 0.3 μM; CHO-K1 cells stably expressing human SGLT1; 14C-AMG uptake; read-out: SGLT1 % Inh @ 0.3 μM
Entries and their measured inhibition at 0.3 µM follow.
Give the number; % is assumed, so skip it.

Consider the reported inhibition at 0.3 µM for these compounds:
Smiles str: COc1cc(O)c([C@@H]2O[C@H](CO)C(F)(F)[C@H](O)[C@H]2O)cc1Cc1ccc(OCF)cc1
Target desc: human SGLT1 (Homo sapiens)
Quantity kind: inhibition at 0.3 µM
Test result: 62.6
--
Smiles str: COc1cc(OC)c([C@@H]2O[C@H](CO)C(F)(F)[C@H](O)[C@H]2O)cc1Cc1ccc2c(c1)OCCO2
Target desc: human SGLT1 (Homo sapiens)
Quantity kind: inhibition at 0.3 µM
Test result: 15.8
--
Smiles str: OC[C@H]1O[C@@H](c2cc(Cc3ccc(C4CC4)cc3)c(C3CC3)cc2O)[C@H](O)[C@@H](O)C1(F)F
Target desc: human SGLT1 (Homo sapiens)
Quantity kind: inhibition at 0.3 µM
Test result: 78.8
--
Smiles str: OC[C@H]1O[C@@H](c2cc(Cc3ccc4c(c3)OCCO4)c3c(c2O)OCC3)[C@H](O)[C@@H](O)C1(F)F
Target desc: human SGLT1 (Homo sapiens)
Quantity kind: inhibition at 0.3 µM
Test result: 52.7
--
Smiles str: OC[C@H]1O[C@@H](c2cc(Cc3cc4ccccc4s3)c(Cl)cc2O)[C@H](O)[C@@H](O)C1(F)F
Target desc: human SGLT1 (Homo sapiens)
Quantity kind: inhibition at 0.3 µM
Test result: 71.3

Req: Kindly state the measured inhibition at 0.3 µM obtained for Cc1cc(O)c([C@@H]2O[C@H](CO)C(F)(F)[C@H](O)[C@H]2O)cc1Cc1ccc(OC(F)(F)F)cc1 with human SGLT1 (Homo sapiens).
Resp: 17.3

Req: Provide value of inhibition at 0.3 µM for this record tested with human SGLT1 (Homo sapiens): COc1cc(Cl)c(Cc2ccc(C)cc2)cc1[C@@H]1O[C@H](CO)C(F)(F)[C@H](O)[C@H]1O
Resp: 52

----------
Property: pIC50; scope: individual compounds
Target desc: human SGLT2 (Homo sapiens, UniProt P31639)
Construct: expressed in transfected cells
Protocol summary: SGLT2 in vitro assay: Na-dependent 14C-AMG uptake in CHO-K1 cells stably expressing human SGLT2
Format: cell-based
Condition notes: CHO-K1 cells expressing human SGLT2; 14C-AMG uptake
The meaning of pIC50 here: minus log10 of the concentration in molar units.

Check out these entries, answers already filled in.
Compound: COc1cc(O)c([C@@H]2O[C@H](CO)[C@@](C)(F)[C@H](O)[C@H]2O)cc1Cc1ccc2c(c1)OCCO2
pIC50: 8.37
--
Compound: C[C@]1(F)[C@H](O)[C@@H](O)[C@H](c2cc(Cc3cc4ccccc4s3)c(Cl)cc2O)O[C@@H]1CO
pIC50: 7.99
--
Compound: CCc1cc(O)c([C@@H]2O[C@H](CO)[C@@](C)(F)[C@H](O)[C@H]2O)cc1Cc1ccc(OC)cc1
pIC50: 8.70

Req: Query: pIC50; subject: Cc1cc(O)c([C@@H]2O[C@H](CO)[C@@](C)(F)[C@H](O)[C@H]2O)cc1Cc1cc2ccccc2s1
Resp: 7.71

Req: Can you look up the measured pIC50 of C[C@]1(F)[C@H](O)[C@@H](O)[C@H](c2cc(Cc3ccc4c(c3)OCCO4)c(Cl)cc2O)O[C@@H]1CO for me?
Resp: 8.68

Req: Would you kindly share the measured pIC50 for Cc1cc(O)c([C@@H]2O[C@H](CO)[C@@](C)(F)[C@H](O)[C@H]2O)cc1Cc1ccc(OCF)cc1 (stereo in doubt) ?
Resp: 8.55

----------
Target desc: human SGLT1 (Homo sapiens)
Construct: expressed in transfected cells
Protocol summary: SGLT1 in vitro assay: Na-dependent 14C-AMG uptake in CHO-K1 cells stably expressing human SGLT1
Format: cell-based
Condition notes: @ 0.3 μM; CHO-K1 cells stably expressing human SGLT1; 14C-AMG uptake; read-out: SGLT1 % Inh @ 0.3 μM
Parameter inhibition at 0.3 µM: see the listing below.

Below: 6 compounds and their reported inhibition at 0.3 µM.
Smiles str: OC[C@H]1O[C@@H](c2cc(Cc3ccc4c(c3)SCCO4)c(Cl)c3c2OCC3)[C@H](O)[C@@H](O)C1(F)F
Test result: 40.7%
--
Smiles str: Cc1cnc(C(=O)N2CCc3sc(Cc4cc([C@@H]5O[C@H](CO)C(F)(F)[C@H](O)[C@H]5O)c(O)cc4C)cc3C2)s1
Test result: 43.3%
--
Smiles str: COc1ccc(Cc2cc([C@@H]3O[C@H](CO)C(F)(F)[C@H](O)[C@H]3O)c(O)cc2OC)cc1
Test result: 74.3%
--
Smiles str: COc1ccc(Cc2cc([C@@H]3O[C@H](CO)C(F)(F)[C@H](O)[C@H]3O)c(O)cc2Cl)cc1
Test result: 76.6%
--
Smiles str: CCOc1ccc(Cc2cc([C@@H]3O[C@H](CO)C(F)(F)[C@H](O)[C@H]3O)c(O)cc2Cl)cc1
Test result: 56.5%
--
Smiles str: CCc1ccc(Cc2cc([C@@H]3O[C@H](CO)C(F)(F)[C@H](O)[C@H]3O)c(O)cc2Cl)cc1
Test result: 67.6%

# next compound below
Req: Returns the measured inhibition at 0.3 µM for the input compound. Input: COc1cc(O)c([C@@H]2O[C@H](CO)C(F)(F)[C@H](O)[C@H]2O)cc1Cc1ccc2c(c1)CCCO2
Resp: 56.2%

Every entry's value here was drawn from patent US20210238170A1.
